System: 266295-075-R-J1-PDC spheroid viability;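 note: spheroids exposed to compounds for seven days before readout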
Assay: Anticancer human tumor 266295-075-R-J1-PDC patient-derived head and neck squamous carcinoma cell line growth inhibition [POLQ]
Details: second compound 1 µM; first compound 0.316 µM; active compounds read low; spheroids with HUVEC and MSC
Answer each item with its documented viability, T/C.
Write the value in % as a bare number.

query: Please indicate recorded viability, T/C of COc1cccc(OCCCN)c1-c1cc(Nc2cnc(C#N)cn2)n[nH]1 + Cc1cccc(N(C)C(=O)C2C(O)CCN2c2nc(C)cc(C(F)(F)F)c2C#N)c1 measured with 266295-075-R-J1-PDC spheroid viability.
result: 66.7

query: Please indicate recorded viability, T/C of COc1cc2cc(C(=O)CCC(=O)O)sc2cc1OC + Nc1ccc(C#CCN(C(=O)Cc2ncc(C(F)(F)F)cc2C(F)(F)F)c2ccc(F)cc2)nn1 measured with 266295-075-R-J1-PDC spheroid viability.
result: 102

query: Please indicate recorded viability, T/C of C#Cc1c(F)ccc2cc(O)cc(-c3ncc4c(N5CC6CCC(C5)N6)nc(OCC56CCCN5CC(F)C6)nc4c3F)c12 (stereo not drawn) + COC1C(OC(N)=O)C(O)C(Oc2ccc3c(O)c(NC(=O)c4ccc(O)c(CC=C(C)C)c4)c(=O)oc3c2C)OC1(C)C measured with 266295-075-R-J1-PDC spheroid viability.
result: 80.1

All figures here come from PubChem BioAssay AID1963853.
